system: J774; experiment: Cytotoxicity against mouse J774 macrophage; format: cell-based
reported-metric: Activity

{"columns": ["mol", "value-reported"],
 "data": [
  ["CN1CCN(C(=O)N[C@@H](Cc2ccccc2)C(=O)N[C@H](/C=C/S(=O)(=O)c2ccccc2)CCc2ccccc2)CC1", "Non-toxic"],
  ["O=C(N[C@@H](Cc1ccccc1)C(=O)N[C@H](/C=C/S(=O)(=O)c1ccccc1)CCc1ccccc1)c1ccc(C(F)(F)F)cc1", "Non-toxic"],
  ["Cc1cccc(C[C@H](NC(=O)c2cc(F)cc(F)c2)C(=O)N[C@H](/C=C/S(=O)(=O)c2ccccc2)CCc2ccccc2)c1", "Toxic"],
  ["Cc1cccc(C[C@H](NC(=O)c2ccc(C(F)(F)F)cc2)C(=O)N[C@H](/C=C/S(=O)(=O)c2ccccc2)CCc2ccccc2)c1", "Toxic"]
]}

--- query ---
Task item: Given the entry "O=C(N[C@@H](Cc1ccccc1)C(=O)N[C@H](/C=C/S(=O)(=O)c1ccccc1)CCc1ccccc1)c1ccccn1" , report its measured Activity.
Reply: Non-toxic

---

test system: Trypanosoma brucei; assay: Inhibition of Trypanosoma brucei rhodesain
// map Kinact onto a label; ranges band A: < 0.01 s⁻¹; band B: ≥ 0.01 s⁻¹ and < 0.03 s⁻¹; band C: ≥ 0.03 s⁻¹

{"columns": ["mol", "qualitative-label"],
 "data": [
  ["O=C(N[C@@H](Cc1ccccc1)C(=O)N[C@H](/C=C/S(=O)(=O)c1ccccc1)CCc1ccccc1)c1ccc2c(c1)OCCO2", "band B"],
  ["Cc1ccc(C[C@H](NC(=O)c2ccccn2)C(=O)N[C@H](/C=C/S(=O)(=O)c2ccccc2)CCc2ccccc2)cc1", "band C"],
  ["O=C(N[C@@H](Cc1cccc(C(F)(F)F)c1)C(=O)N[C@H](/C=C/S(=O)(=O)c1ccccc1)CCc1ccccc1)c1ccccn1", "band A"],
  ["Cc1cccc(C[C@H](NC(=O)N2CCN(C)CC2)C(=O)N[C@H](/C=C/S(=O)(=O)c2ccccc2)CCc2ccccc2)c1", "band C"],
  ["Cc1ccc(C[C@H](NC(=O)c2ccc(C(F)(F)F)cc2)C(=O)N[C@H](/C=C/S(=O)(=O)c2ccccc2)CCc2ccccc2)cc1", "band B"]
]}

Task item: Hi, small favor: classify "O=C(N[C@@H](Cc1cccc(C(F)(F)F)c1)C(=O)N[C@H](/C=C/S(=O)(=O)c1ccccc1)CCc1ccccc1)c1cc(F)cc(F)c1" by its Kinact when you get a moment.
Reply: band A

Task item: For "O=C(N[C@@H](Cc1ccccc1)C(=O)N[C@H](/C=C/S(=O)(=O)c1ccccc1)CCc1ccccc1)c1ccccn1" then?
Reply: band C

---

assay: Inhibition of Trypanosoma brucei rhodesain
reported-metric: pKi
Bear in mind: pKi is minus log10 of a mol/L concentration; give just that figure.

Task item: Value lookup for pKi; key = "O=C(N[C@@H](Cc1ccccc1)C(=O)N[C@H](/C=C/S(=O)(=O)c1ccccc1)CCc1ccccc1)c1cc(F)cc(F)c1"
Reply: 7.18

Task item: Then what about the molecule "Cc1cccc(C[C@H](NC(=O)c2ccc(C(F)(F)F)cc2)C(=O)N[C@H](/C=C/S(=O)(=O)c2ccccc2)CCc2ccccc2)c1" ?
Reply: 7.37

Task item: Another: "O=C(N[C@@H](Cc1ccccc1)C(=O)N[C@H](/C=C/S(=O)(=O)c1ccccc1)CCc1ccccc1)c1ccc2c(c1)OCCO2"
Reply: 7.07

Task item: Next record, please: "Cc1ccc(C[C@H](NC(=O)c2ccc3c(c2)OCCO3)C(=O)N[C@H](/C=C/S(=O)(=O)c2ccccc2)CCc2ccccc2)cc1"
Reply: 7.70

Task item: Please do the same for "Cc1cccc(C[C@H](NC(=O)c2ccccn2)C(=O)N[C@H](/C=C/S(=O)(=O)c2ccccc2)CCc2ccccc2)c1" as well.
Reply: 6.64

Task item: Could you do the same for "Cc1ccc(C[C@H](NC(=O)c2ccccn2)C(=O)N[C@H](/C=C/S(=O)(=O)c2ccccc2)CCc2ccccc2)cc1" , please?
Reply: 6.06

Task item: Next up: "Cc1ccc(C[C@H](NC(=O)c2cc(F)cc(F)c2)C(=O)N[C@H](/C=C/S(=O)(=O)c2ccccc2)CCc2ccccc2)cc1"
Reply: 7.52

Task item: Cool, now "O=C(N[C@@H](Cc1ccccc1)C(=O)N[C@H](/C=C/S(=O)(=O)c1ccccc1)CCc1ccccc1)c1ccc(C(F)(F)F)cc1"
Reply: 7.06

Task item: Same again, this time with "Cc1cccc(C[C@H](NC(=O)N2CCN(C)CC2)C(=O)N[C@H](/C=C/S(=O)(=O)c2ccccc2)CCc2ccccc2)c1"
Reply: 6.77

Task item: Okay, and "O=C(N[C@@H](Cc1cccc(C(F)(F)F)c1)C(=O)N[C@H](/C=C/S(=O)(=O)c1ccccc1)CCc1ccccc1)c1ccccn1" ?
Reply: 6.55

Task item: "O=C(N[C@@H](Cc1ccccc1)C(=O)N[C@H](/C=C/S(=O)(=O)c1ccccc1)CCc1ccccc1)c1ccccn1" , same question.
Reply: 6.04

---

test system: J774; experiment: Cytotoxicity against mouse J774 macrophage; assay type: cell-based
reported-metric: Activity

{"columns": ["mol", "reported-metric", "value-reported"],
 "data": [
  ["O=C(N[C@@H](Cc1ccccc1)C(=O)N[C@H](/C=C/S(=O)(=O)c1ccccc1)CCc1ccccc1)c1cc(F)cc(F)c1", "Activity", "Toxic"],
  ["CN1CCN(C(=O)N[C@@H](Cc2cccc(C(F)(F)F)c2)C(=O)N[C@H](/C=C/S(=O)(=O)c2ccccc2)CCc2ccccc2)CC1", "Activity", "Toxic"],
  ["O=C(N[C@@H](Cc1cccc(C(F)(F)F)c1)C(=O)N[C@H](/C=C/S(=O)(=O)c1ccccc1)CCc1ccccc1)c1cc(F)cc(F)c1", "Activity", "Non-toxic"],
  ["Cc1cccc(C[C@H](NC(=O)N2CCN(C)CC2)C(=O)N[C@H](/C=C/S(=O)(=O)c2ccccc2)CCc2ccccc2)c1", "Activity", "Non-toxic"]
]}

---

target: Cruzipain (Trypanosoma cruzi); assay: Inhibition of Trypanosoma cruzi cruzain
Quick reference: Kinact of the listed items.
All answers are understood in s⁻¹, so give the number only.

Past entries and their recorded results:
{"columns": ["mol", "measurement-target", "unit-tag", "Kinact"],
 "data": [
  ["Cc1cccc(C[C@H](NC(=O)N2CCN(C)CC2)C(=O)N[C@H](/C=C/S(=O)(=O)c2ccccc2)CCc2ccccc2)c1", "Cruzipain (Trypanosoma cruzi)", "s⁻¹", 0.86],
  ["O=C(N[C@@H](Cc1ccccc1)C(=O)N[C@H](/C=C/S(=O)(=O)c1ccccc1)CCc1ccccc1)c1ccc2c(c1)OCCO2", "Cruzipain (Trypanosoma cruzi)", "s⁻¹", 0.0056],
  ["O=C(N[C@@H](Cc1ccccc1)C(=O)N[C@H](/C=C/S(=O)(=O)c1ccccc1)CCc1ccccc1)c1ccc(C(F)(F)F)cc1", "Cruzipain (Trypanosoma cruzi)", "s⁻¹", 0.0097]
]}

Task item: Which Kinact is reported with Cruzipain (Trypanosoma cruzi) for this entry: "Cc1cccc(C[C@H](NC(=O)c2ccccn2)C(=O)N[C@H](/C=C/S(=O)(=O)c2ccccc2)CCc2ccccc2)c1" ?
Reply: 0.01

---

Measured Kinact values are reported for all entries that follow.
biological target: Cruzipain (Trypanosoma cruzi); test: Inhibition of Trypanosoma cruzi cruzain
Report the value in s⁻¹ with no unit label.

A selection of reference data follows.
{"columns": ["mol", "unit-tag", "value-reported"],
 "data": [
  ["O=C(N[C@@H](Cc1cccc(C(F)(F)F)c1)C(=O)N[C@H](/C=C/S(=O)(=O)c1ccccc1)CCc1ccccc1)c1ccccn1", "s⁻¹", 0.00047],
  ["Cc1ccc(C[C@H](NC(=O)c2ccc(C(F)(F)F)cc2)C(=O)N[C@H](/C=C/S(=O)(=O)c2ccccc2)CCc2ccccc2)cc1", "s⁻¹", 0.0049],
  ["CN1CCN(C(=O)N[C@@H](Cc2cccnc2)C(=O)N[C@H](/C=C/S(=O)(=O)c2ccccc2)CCc2ccccc2)CC1", "s⁻¹", 0.16],
  ["O=C(N[C@@H](Cc1ccccc1)C(=O)N[C@H](/C=C/S(=O)(=O)c1ccccc1)CCc1ccccc1)c1ccccn1", "s⁻¹", 0.03]
]}

Okay, next one:
Task item: Could you share which Kinact value was measured for "Cc1cccc(C[C@H](NC(=O)c2cc(F)cc(F)c2)C(=O)N[C@H](/C=C/S(=O)(=O)c2ccccc2)CCc2ccccc2)c1" ?
Reply: 0.0052

---

target: UniProt P25779; assay: Ratio of Kinact to ki of Trypanosoma cruzi cruzain
Sequence (P25779 123-467 limits assumed): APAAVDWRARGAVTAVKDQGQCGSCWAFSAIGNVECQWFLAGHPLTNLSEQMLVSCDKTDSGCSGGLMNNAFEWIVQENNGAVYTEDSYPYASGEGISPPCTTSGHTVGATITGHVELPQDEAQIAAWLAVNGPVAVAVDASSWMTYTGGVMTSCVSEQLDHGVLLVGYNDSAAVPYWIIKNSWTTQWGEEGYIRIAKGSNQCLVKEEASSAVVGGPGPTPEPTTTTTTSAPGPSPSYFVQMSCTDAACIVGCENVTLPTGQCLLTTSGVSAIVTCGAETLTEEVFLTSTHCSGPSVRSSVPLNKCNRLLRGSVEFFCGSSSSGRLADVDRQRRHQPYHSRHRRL
Entries and their Ratio values follow.
Give the value, in units of M⁻¹ s⁻¹, as a plain number.

{"columns": ["mol", "unit-tag", "Ratio"],
 "data": [
  ["CN1CCN(C(=O)N[C@@H](Cc2cccnc2)C(=O)N[C@H](/C=C/S(=O)(=O)c2ccccc2)CCc2ccccc2)CC1", "M⁻¹ s⁻¹", 45000],
  ["Cc1cccc(C[C@H](NC(=O)c2ccccn2)C(=O)N[C@H](/C=C/S(=O)(=O)c2ccccc2)CCc2ccccc2)c1", "M⁻¹ s⁻¹", 36000],
  ["Cc1cccc(C[C@H](NC(=O)c2ccc(C(F)(F)F)cc2)C(=O)N[C@H](/C=C/S(=O)(=O)c2ccccc2)CCc2ccccc2)c1", "M⁻¹ s⁻¹", 38000],
  ["O=C(N[C@@H](Cc1cccc(C(F)(F)F)c1)C(=O)N[C@H](/C=C/S(=O)(=O)c1ccccc1)CCc1ccccc1)c1ccccn1", "M⁻¹ s⁻¹", 3100],
  ["O=C(N[C@@H](Cc1ccccc1)C(=O)N[C@H](/C=C/S(=O)(=O)c1ccccc1)CCc1ccccc1)c1cc(F)cc(F)c1", "M⁻¹ s⁻¹", 31000],
  ["O=C(N[C@@H](Cc1ccccc1)C(=O)N[C@H](/C=C/S(=O)(=O)c1ccccc1)CCc1ccccc1)c1ccccn1", "M⁻¹ s⁻¹", 120000]
]}

Consider the record given below.
Task item: Write down the reported Ratio of "O=C(N[C@@H](Cc1ccccc1)C(=O)N[C@H](/C=C/S(=O)(=O)c1ccccc1)CCc1ccccc1)c1ccc2c(c1)OCCO2" , test system: UniProt P25779.
Reply: 70000
